# test-name: Pharmacokinetics in mice (plasma concentration by HPLC)
# Type: in vivo
# conditions-used: mouse, plasma, sc, 20 mg/kg, sc, 20 mg/kg, saline solution, read-out: AUC(0-60) (converted)
readout-label: AUC(0-t) (ng·h/mL)
Express it in ng·h/mL; write the number only.

Q: Record request: AUC(0-t) value, item `CCc1cc(Nc2cc(=O)n(CCCCN3CCOCC3)c(=O)[nH]2)ccc1C.Cl`
A: 3330

----------
# Test system: E. fecalis
Measured MIC of individual entries
Express it in µg/mL; write the number only.

In the examples that follow, each entry is paired with its recorded MIC.
                               entry_smiles  units_symbol  value_reported
0  CCc1cc(Nc2cc(=O)n(CCCCCN3CC=C(c4ccc(Cl)cc4)CC3)c(=O)[nH]2)ccc1C         µg/mL              80
1  CCc1cc(Nc2cc(=O)n(CC(=O)N(CC)CC)c(=O)[nH]2)ccc1C         µg/mL              20
2  CCc1cc(Nc2cc(=O)n(CCCCN3CCN(c4ncccn4)CC3)c(=O)[nH]2)ccc1C         µg/mL               5

Q: Record request: MIC value, item `CCc1cc(Nc2cc(=O)n(CCCCNC(=O)C3CC3)c(=O)[nH]2)ccc1C`
A: 5

----------
# test-name: Pharmacokinetics in mice (plasma concentration by HPLC)
# Format: in vivo
# conditions-used: mouse, plasma, iv, 20 mg/kg, saline solution
# From the text: Compound 59 was given to mice in simple saline solutions by various routes—subcutaneous (sc), intravenous (iv), and orally (po). High performance liquid chromatography (HPLC) on a reverse phase C 18 column was used to monitor the concentration of the compound in animal plasma, and the results were plotted as a function of time, as shown in FIG. 1. […]
readout-label: clearance (mL/min/kg)
Express it in mL/min/kg; write the number only.

Q: Record request: clearance value, item `CCc1cc(Nc2cc(=O)n(CCCCN3CCOCC3)c(=O)[nH]2)ccc1C.Cl`
A: 77

----------
# test-name: Water solubility
# Format: physicochemical
# conditions-used: 25° C. stated for Compound 35
readout-label: solubility

>>> print(df.to_string())
                               entry_smiles  value_reported
0  CCc1cc(Nc2cc(=O)n(CCCCN3CCOCC3)c(=O)[nH]2)ccc1C       < 1 mg/mL

# next molecule below
Q: Record request: solubility value, item `CCc1cc(Nc2cc(=O)n(CCCCN3CCOCC3)c(=O)[nH]2)ccc1C.Cl`
A: > 60 mg/mL

----------
# Tested on: E. fecalis
readout-label: MIC

In the examples that follow, each entry is paired with its recorded MIC.
>>> print(df.to_string())
                               entry_smiles  readout_label  value_reported
0  CCc1cc(Nc2cc(=O)n(CCNS(C)(=O)=O)c(=O)[nH]2)ccc1C            MIC         20 mg/L
1  CCc1cc(Nc2cc(=O)n(CCCCCN3CCc4c([nH]c5ccc(OC)cc45)C3)c(=O)[nH]2)ccc1C            MIC         20 mg/L
2  CCc1cc(Nc2cc(=O)n(CCCCOC(C)=O)c(=O)[nH]2)ccc1C            MIC          5 mg/L

Q: Record request: MIC value, item `CCc1cc(Nc2cc(=O)n(CCCCN3CC=C(c4ccc5c(c4)OCO5)CC3)c(=O)[nH]2)ccc1C`
A: 5 mg/L
